What ED50 was measured for each of the following?
# Test system: Rattus norvegicus
# assay explanation: Central dopamine receptor stimulating activity in Sprague-Dawley rat assessed as reduction in DOPA accumulation in limbic region of brain at 2 umol/kg, sc by spectrophotometric method
# Assay type: functional
# measurement conditions: Limbic system
Note: unit µmol/kg is implicit; provide only the numeric part.

(Q) Need ED50 of Br.CCNC1CCc2c(O)cccc2C1 (configuration not stated) , thanks.
(A) 0.072

(Q) Need ED50 of CCCCN(CC)C1CCc2c(cccc2OC)C1.Cl (configuration not stated) , thanks.
(A) 0.068

(Q) Need ED50 of Br.CCCN(CC)C1CCc2c(O)cccc2C1 (configuration not stated) , thanks.
(A) 0.024

(Q) Need ED50 of Br.CCN(C)C1CCc2c(O)cccc2C1 (configuration not stated) , thanks.
(A) 0.074

(Q) Need ED50 of Br.CCCCN(CCC)C1CCc2c(O)cccc2C1 (configuration not stated) , thanks.
(A) 0.011

(Q) Need ED50 of Br.CCCCN(CC)C1CCc2c(O)cccc2C1 (configuration not stated) , thanks.
(A) 0.03

(Q) Need ED50 of CCCN(CCC)C1CCc2c(cccc2OC)C1.Cl (configuration not stated) , thanks.
(A) 0.013
